Test system: HBV
protocol notes: PHH screening protocol: HBsAg and HBeAg levels by MSD ELISA
Format: cell-based, Hepatitis B Virus
test conditions: Hepatitis B virus, 336 h, read-out: HBeAg EC50, virus 30P; PHH donor 4239; d 25; compound removed after 14 days of treatment
pEC50: −log10 of the molar value.
assay endpoint: pEC50

• CCOC(=O)c1ccnc(CNCC(=O)N(CC)CCN(C)C)c1 = 7.82

---

Below are IC50 values measured for KDM6A (Homo sapiens).
assay endpoint: IC50 (µM)

- CCN(CCN(C)C)C(=O)CNCc1cc(C(=O)O)ccn1: 1.3
- CCN(CC)CCCCNCc1cc(C(=O)O)ccn1: 5.5
- Cc1cc(Cl)ccc1COc1ccnn1-c1cc(C(=O)O)ccn1: 0.074
- O=C(O)c1ccncc1Nc1nn(CCN2CCC(F)(F)CC2)c2ccc(F)cc12: 0.14
- Nc1c(C(=O)O)ccnc1C(=O)O [Example 7, reference compound]: 0.93

---

study target: UniProt:Q9UGL1
Sequence (Q9UGL1 whole entry): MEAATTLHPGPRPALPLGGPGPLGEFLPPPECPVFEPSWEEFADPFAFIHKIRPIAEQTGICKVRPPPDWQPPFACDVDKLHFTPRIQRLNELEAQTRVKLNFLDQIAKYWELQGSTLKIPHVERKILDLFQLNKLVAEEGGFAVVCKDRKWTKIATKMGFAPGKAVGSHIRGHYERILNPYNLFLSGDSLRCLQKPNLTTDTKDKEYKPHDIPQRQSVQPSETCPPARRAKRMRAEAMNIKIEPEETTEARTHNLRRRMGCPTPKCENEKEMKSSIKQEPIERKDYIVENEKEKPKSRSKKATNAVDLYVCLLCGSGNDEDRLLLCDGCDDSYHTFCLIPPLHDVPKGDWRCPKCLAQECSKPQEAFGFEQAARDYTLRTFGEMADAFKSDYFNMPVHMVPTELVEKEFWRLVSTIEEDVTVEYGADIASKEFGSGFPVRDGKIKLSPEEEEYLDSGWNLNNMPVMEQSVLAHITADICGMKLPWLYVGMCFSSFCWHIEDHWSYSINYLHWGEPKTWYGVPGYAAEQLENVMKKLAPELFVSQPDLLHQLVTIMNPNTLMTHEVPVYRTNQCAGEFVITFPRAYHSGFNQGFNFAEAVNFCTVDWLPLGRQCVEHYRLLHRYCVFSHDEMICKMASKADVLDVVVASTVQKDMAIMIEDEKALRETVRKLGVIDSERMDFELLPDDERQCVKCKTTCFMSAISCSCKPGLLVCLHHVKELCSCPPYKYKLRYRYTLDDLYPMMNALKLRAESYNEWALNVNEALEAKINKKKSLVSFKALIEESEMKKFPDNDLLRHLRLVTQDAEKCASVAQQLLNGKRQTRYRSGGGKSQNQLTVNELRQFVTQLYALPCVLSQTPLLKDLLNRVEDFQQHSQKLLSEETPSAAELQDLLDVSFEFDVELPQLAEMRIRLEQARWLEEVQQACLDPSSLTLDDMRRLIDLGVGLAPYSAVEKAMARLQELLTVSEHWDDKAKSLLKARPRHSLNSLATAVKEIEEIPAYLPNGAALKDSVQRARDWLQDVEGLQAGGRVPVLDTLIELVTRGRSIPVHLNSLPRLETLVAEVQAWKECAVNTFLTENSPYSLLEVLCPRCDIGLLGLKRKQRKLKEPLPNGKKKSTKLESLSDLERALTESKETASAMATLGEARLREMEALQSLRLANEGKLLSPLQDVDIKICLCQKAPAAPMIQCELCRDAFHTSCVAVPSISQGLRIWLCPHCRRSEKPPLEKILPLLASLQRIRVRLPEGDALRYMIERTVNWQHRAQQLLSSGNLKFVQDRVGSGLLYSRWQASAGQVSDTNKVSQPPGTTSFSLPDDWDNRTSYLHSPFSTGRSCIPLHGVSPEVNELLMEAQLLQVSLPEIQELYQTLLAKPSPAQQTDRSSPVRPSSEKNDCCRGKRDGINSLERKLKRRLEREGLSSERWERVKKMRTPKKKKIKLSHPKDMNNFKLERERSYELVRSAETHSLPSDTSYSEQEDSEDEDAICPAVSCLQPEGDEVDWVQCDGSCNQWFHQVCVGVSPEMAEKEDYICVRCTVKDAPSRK
Items are presented alongside their recorded IC50.
assay endpoint: IC50 (nM)

- CCN(CC)CCCCNCc1cc(C(=O)O)ccn1 [Example 18]: 3.1
- Nc1c(C(=O)O)ccnc1C(=O)O [Example 7, reference compound]: 510
- Cc1cc(Cl)ccc1COc1ccnn1-c1cc(C(=O)O)ccn1 [Example 11]: 36
- CCN(CCN(C)C)C(=O)CNCc1cc(C(=O)O)ccn1 [Example 9]: 14
- O=C(O)c1ccncc1Nc1nn(CCN2CCC(F)(F)CC2)c2ccc(F)cc12 [Example 13]: 21
- O=C(O)c1ccnc(-n2ncc(CCO)c2OCc2ccc(F)cc2)c1 [Example 12]: 2700
- N#CNC(=O)c1ccncc1Nc1nn(CCN2CCC(F)(F)CC2)c2ccc(F)cc12 [Example 14]: 14

---

Test system: HBV
protocol notes: PHH screening protocol: HBsAg and HBeAg levels by MSD ELISA
Type: cell-based, Hepatitis B Virus
test conditions: Hepatitis B virus, 336 h, read-out: HBsAg EC50, virus 30P; PHH donor 8130; d 14; compound removed after 14 days of treatment
assay endpoint: EC50

- CCOC(=O)c1ccnc(CNCC(=O)N(CC)CCN(C)C)c1: 1 nM

---

Test system: HBV
protocol notes: PHH screening protocol: HBsAg and HBeAg levels by MSD ELISA
Type: cell-based, Hepatitis B Virus
test conditions: Hepatitis B virus, 408 h, read-out: HBsAg EC50, virus 32P (GTA); PHH 8130; day 17 p.i.
pEC50: −log10 of the molar value.
assay endpoint: pEC50

* CCOC(=O)c1ccnc(CNCC(=O)N(CC)CCN(C)C)c1 | 7.10

---

Tested on: HBV
protocol notes: PHH screening protocol: HBsAg and HBeAg levels by MSD ELISA
Assay type: cell-based, Hepatitis B Virus
test conditions: Hepatitis B virus, 336 h, read-out: HBsAg EC50, virus 30P; PHH donor 4239; d 25; compound removed after 14 days of treatment
Protocol: HBV antiviral activity was assessed in primary human hepatocytes (PHH) in a 96-well format. PHH were (Life Technologies, Chicago, 11) plated on collagen coated tissue culture plates using Plating Media containing William's Medium E supplemented with 1% Penicillin/Streptomycin, 4 μg/mL human recombinant insulin, 2 mM glutamax, 15 mM Hepes, 1 μM dexamethasone and 5% fetal bovine serum (Life Technologies, Cat#A12176-01 Life Technologies, Chicago, Ill.). […]
pEC50: −log10 of the molar value.
assay endpoint: pEC50

* CCOC(=O)c1ccnc(CNCC(=O)N(CC)CCN(C)C)c1 | 7.55

---

Test system: H3K4me3 mark
protocol notes: Western blot detection of H3K4me3 in HBV-infected PHHs
Type: cell-based, human
test conditions: Homo sapiens, read-out: IC50 (concentration causing a 50% increase in the H3K4me3 mark), Virus 21P (GTA); PHH 8181
A collection of compounds and their measured IC50
assay endpoint: IC50 (nM)

• CCN(CCN(C)C)C(=O)CNCc1cc(C(=O)O)ccn1 [Example 9] = 100
• CCN(CCN(C)C)C(=O)CNCc1cc(C=O)ccn1 [Example 15] = 30
• CCOC(=O)c1ccnc(CNCC(=O)N(CC)CCN(C)C)c1 [Example 8] = 70

---

Test system: HBV
protocol notes: PHH screening protocol: HBsAg and HBeAg levels by MSD ELISA
Assay type: cell-based, Hepatitis B Virus
test conditions: Hepatitis B virus, 336 h, read-out: HBsAg EC50, virus 30P; PHH donor 4239; d 31; compound removed after 14 days of treatment
pEC50: −log10 of the molar value.
assay endpoint: pEC50

* CCOC(=O)c1ccnc(CNCC(=O)N(CC)CCN(C)C)c1 [Example 8] | 7.49

---

study target: KDM3A (Homo sapiens)
Sequence (Q9Y4C1 1-1321): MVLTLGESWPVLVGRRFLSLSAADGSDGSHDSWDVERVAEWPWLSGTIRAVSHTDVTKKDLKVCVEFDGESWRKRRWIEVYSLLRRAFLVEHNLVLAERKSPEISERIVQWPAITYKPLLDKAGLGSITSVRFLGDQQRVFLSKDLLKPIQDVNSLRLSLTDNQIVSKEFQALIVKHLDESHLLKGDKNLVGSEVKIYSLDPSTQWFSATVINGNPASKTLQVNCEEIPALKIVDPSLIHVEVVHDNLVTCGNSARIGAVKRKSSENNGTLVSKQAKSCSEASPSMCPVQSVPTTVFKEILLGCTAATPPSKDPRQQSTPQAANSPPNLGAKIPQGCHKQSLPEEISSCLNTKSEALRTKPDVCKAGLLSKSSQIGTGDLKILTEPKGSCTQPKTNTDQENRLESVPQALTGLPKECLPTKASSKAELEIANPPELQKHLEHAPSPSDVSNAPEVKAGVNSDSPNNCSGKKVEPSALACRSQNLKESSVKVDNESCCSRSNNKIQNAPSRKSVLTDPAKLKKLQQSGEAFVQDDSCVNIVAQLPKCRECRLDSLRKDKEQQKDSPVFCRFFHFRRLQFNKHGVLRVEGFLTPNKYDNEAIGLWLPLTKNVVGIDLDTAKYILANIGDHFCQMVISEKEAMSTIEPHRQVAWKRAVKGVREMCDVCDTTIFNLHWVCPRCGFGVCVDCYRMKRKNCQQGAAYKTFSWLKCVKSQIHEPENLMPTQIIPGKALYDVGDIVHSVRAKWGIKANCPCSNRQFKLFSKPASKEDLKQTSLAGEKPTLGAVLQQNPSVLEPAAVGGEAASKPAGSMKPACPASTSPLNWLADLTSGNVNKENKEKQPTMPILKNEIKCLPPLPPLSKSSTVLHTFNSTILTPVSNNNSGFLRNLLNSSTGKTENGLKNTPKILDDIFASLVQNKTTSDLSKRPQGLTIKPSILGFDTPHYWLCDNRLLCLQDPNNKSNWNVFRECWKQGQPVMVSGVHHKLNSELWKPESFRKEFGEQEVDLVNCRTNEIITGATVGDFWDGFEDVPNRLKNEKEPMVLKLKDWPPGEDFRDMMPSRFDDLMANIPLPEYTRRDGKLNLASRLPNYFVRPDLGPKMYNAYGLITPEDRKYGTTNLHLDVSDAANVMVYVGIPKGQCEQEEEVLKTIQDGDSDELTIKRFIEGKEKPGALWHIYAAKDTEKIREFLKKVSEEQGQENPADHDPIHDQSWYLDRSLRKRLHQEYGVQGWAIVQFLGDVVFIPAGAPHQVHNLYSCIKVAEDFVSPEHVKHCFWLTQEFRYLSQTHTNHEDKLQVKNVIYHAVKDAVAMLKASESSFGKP
pIC50: −log10 of the molar value.
assay endpoint: pIC50

* CCN(CC)CCCCNCc1cc(C(=O)O)ccn1 | 5.27
* N#CNC(=O)c1ccncc1Nc1nn(CCN2CCC(F)(F)CC2)c2ccc(F)cc12 | 5.41
* CCN(CCN(C)C)C(=O)CNCc1cc(C(=O)O)ccn1 | 5.96
* Nc1c(C(=O)O)ccnc1C(=O)O [Example 7, reference compound] | 5.92
* Cc1cc(Cl)ccc1COc1ccnn1-c1cc(C(=O)O)ccn1 | 5.12

---

Test system: HBV
protocol notes: PHH screening protocol: HBsAg and HBeAg levels by MSD ELISA
Assay type: cell-based, Hepatitis B Virus
test conditions: Hepatitis B virus, read-out: HBsAg EC50, D 27; PHH donor 8181; virus 21p
The following compounds are shown together with reported EC50 values.
assay endpoint: EC50 (µM)

- Nc1c(C(=O)O)ccnc1C(=O)O [Example 7, reference compound]: 0.06
- CCN(CCN(C)C)C(=O)CNCc1cc(C(=O)O)ccn1: 0.4

---

Tested on: HBV
protocol notes: PHH screening protocol: HBsAg and HBeAg levels by MSD ELISA
Assay type: cell-based, Hepatitis B Virus
test conditions: Hepatitis B virus, 336 h, read-out: HBsAg EC50, virus AD38; PHH donor 4239; d 17; compound removed after 14 days of treatment
assay endpoint: EC50 (µM)

* CCOC(=O)c1ccnc(CNCC(=O)N(CC)CCN(C)C)c1 [Example 8] | 0.842
